src = patent US6818617

target: integrin α4β1 on CHO cells transfected with human α4 (human) (UniProt P13612); assay: inhibition of cell adhesion: α4B2 (CHO α4+/α5-) cells to immobilized VCAM-1
recorded.metric: pIC50
Hey, just a heads up that pIC50 is the negative log base 10 of the concentration in molar.

Sample EC-3 protein, heterodimeric disintegrin from Echis carinatus suchoreki venom (protein) chain 1: NSVHPCCDPVKCEPREGEHCISGPCCRNCYFLRAGTVCKRAVGDDVDDYCSGITPDCPRNRYKGKED chain 2: NSVHPCCDPVKCEPREGEHCISGPCCRNCKFLNAGTICKRAMLDGLNDYCTGISTDCPRNRYKGKED ; pIC50 observed: 7.52
